- method-summary: Evaluation of conversion rate to active form in buffer solution (Experimental Example 1)
- Format: physicochemical
- condition: pH7.4, 0 hr, 37° C., 25 umol/L in buffer solution
Where a name gives a salt, the structure may show the parent alone.
metric: Production rate of Alvocidib (%)
Use % as the unit, but write only the number.

Example entries and their recorded answers appear below.
molecule	Production rate of Alvocidib (%)
CC(C)N(CC1CCCCN1)C(=O)Oc1cc(O)c2c(=O)cc(-c3ccccc3Cl)oc2c1[C@H]1CCN(C)C[C@H]1O (stereo partly drawn) [Example 10]	3.1
CN1CC[C@H](c2c(OC(=O)N(Cc3ccccc3)CC3CCCCN3)cc(O)c3c(=O)cc(-c4ccccc4Cl)oc23)[C@H](O)C1 (stereo partly drawn) [Example 15]	4.8

Dear colleague, I am looking for the recorded Production rate of Alvocidib of the following molecule: CCN(CC1CCCCN1)C(=O)Oc1cc(O)c2c(=O)cc(-c3ccccc3Cl)oc2c1[C@H]1CCN(C)C[C@H]1O (stereo partly drawn) [Example 7, dihydrochloride] 19.0

Dear colleague, I am looking for the recorded Production rate of Alvocidib of the following molecule: CCN(C[C@@H]1CCCCN1)C(=O)Oc1cc(O)c2c(=O)cc(-c3ccccc3Cl)oc2c1[C@H]1CCN(C)C[C@H]1O [Example 1, ditrifluoroacetate] 0.4

Dear colleague, I am looking for the recorded Production rate of Alvocidib of the following molecule: CN1CC[C@H](c2c(OC(=O)N(CCC(F)(F)F)CC3CCCCN3)cc(O)c3c(=O)cc(-c4ccccc4Cl)oc23)[C@H](O)C1 (stereo partly drawn) [Example 13] 9.2

Dear colleague, I am looking for the recorded Production rate of Alvocidib of the following molecule: CCCN(CC1CCCCN1)C(=O)Oc1cc(O)c2c(=O)cc(-c3ccccc3Cl)oc2c1[C@H]1CCN(C)C[C@H]1O (stereo partly drawn) [Example 9] 3.4

====

Recorded Residual rate values for a group of compounds are listed next.
- method-summary: Evaluation of conversion rate to active form in buffer solution (Experimental Example 1)
- Assay type: physicochemical
- condition: pH7.0, 0.5 hr, 37° C., 25 umol/L in buffer solution
Where a name gives a salt, the structure may show the parent alone.
Note: state the figure and append the unit.

Example entries and their recorded answers appear below.
compound	test-value
CCCN(C[C@@H]1CCCCN1)C(=O)Oc1cc(O)c2c(=O)cc(-c3ccccc3Cl)oc2c1[C@H]1CCN(C)C[C@H]1O [Example 5]	72.7%
CN1CC[C@H](c2c(OC(=O)N(CCC(F)(F)F)CC3CCCCN3)cc(O)c3c(=O)cc(-c4ccccc4Cl)oc23)[C@H](O)C1 (some centres unmarked) [Example 13]	18.7%

Dear colleague, I am looking for the recorded Residual rate of the following compound: CCN(CC1CCCCN1)C(=O)Oc1cc(O)c2c(=O)cc(-c3ccccc3Cl)oc2c1[C@H]1CCN(C)C[C@H]1O (some centres unmarked) [Example 7, dihydrochloride] 72.7%

Dear colleague, I am looking for the recorded Residual rate of the following compound: CCN(C[C@H]1CCCCN1)C(=O)Oc1cc(O)c2c(=O)cc(-c3ccccc3Cl)oc2c1[C@H]1CCN(C)C[C@H]1O [Example 2] 66.7%

Dear colleague, I am looking for the recorded Residual rate of the following compound: CCNC(=O)Oc1cc(O)c2c(=O)cc(-c3ccccc3Cl)oc2c1[C@H]1CCN(C)C[C@H]1O [Comparative Example 1, reference compound] 1.0%
